Target: Nav1.7 (or SCN9A) channel (Homo sapiens)
Construct: expressed in transfected cells
Assay: Nav1.7 (hSCN9A) electrophysiology assay, PatchXpress platform
Assay type: cell-based
Settings: estimated IC50 from single point electrophysiology data, HEK cells stably expressing hSCN9A, held at V1/2 of inactivation, read-out: Nav1.7 EIC50
Description: The ability of the compounds of formula (I) to block the Nav1.7 (or SCN9A) channel were measured using the assay described below. Human Embryonic Kidney (HEK) cells were transfected with an hSCN9A construct using lipofectamine reagent (Invitrogen), using standard techniques. […] hSCN9A currents in HEK cells were measured using the whole-cell configuration of the patch-clamp technique (Hamill et al., 1981). […]
reported_metric: log10(IC50) (log10 of the value in nM)
Form field - Quantity: IC50; Unit: nM; Scale: log10

Measured log10(IC50) (Nav1.7 (or SCN9A) channel (Homo sapiens)), entry `CS(=O)(=O)NC(=O)c1cc(F)c(COc2ccc(OC(F)F)c(Cl)c2)cc1F` : 2.11

Measured log10(IC50) (Nav1.7 (or SCN9A) channel (Homo sapiens)), entry `Cc1ccc(OCc2cc(F)c(C(=O)NS(C)(=O)=O)cc2F)cc1` : 2.79

Measured log10(IC50) (Nav1.7 (or SCN9A) channel (Homo sapiens)), entry `CCc1ccccc1OCc1cc(F)c(C(=O)NS(C)(=O)=O)cc1F` : 3.15

Measured log10(IC50) (Nav1.7 (or SCN9A) channel (Homo sapiens)), entry `CS(=O)(=O)NC(=O)c1ccc(OCc2cc(F)ccc2F)cc1` : 3.41

Measured log10(IC50) (Nav1.7 (or SCN9A) channel (Homo sapiens)), entry `CS(=O)(=O)NC(=O)c1ccc(OCc2cccc(Cl)c2)cc1` : 3.54

Measured log10(IC50) (Nav1.7 (or SCN9A) channel (Homo sapiens)), entry `CS(=O)(=O)NC(=O)c1cc(F)c(COc2ccc(F)cc2C2CC2)cc1F` : 3.36

Measured log10(IC50) (Nav1.7 (or SCN9A) channel (Homo sapiens)), entry `CS(=O)(=O)NC(=O)c1cc(F)c(OCc2ccccc2C(F)(F)F)cc1F` : 3.23

Measured log10(IC50) (Nav1.7 (or SCN9A) channel (Homo sapiens)), entry `COc1ccc2cccc(OCc3cc(F)c(C(=O)NS(C)(=O)=O)cc3F)c2c1` : 3.36

Measured log10(IC50) (Nav1.7 (or SCN9A) channel (Homo sapiens)), entry `CS(=O)(=O)NC(=O)c1ccc(OCc2cc(Cl)cc(Cl)c2)cc1` : 2.40

Measured log10(IC50) (Nav1.7 (or SCN9A) channel (Homo sapiens)), entry `CS(=O)(=O)NC(=O)c1cc(F)c(COc2ccc(F)c(C#N)c2)cc1F` : 3.15

---

Target: Nav1.7 (or SCN9A) channel (Homo sapiens)
Construct: expressed in transfected cells
Assay: Nav1.7 (hSCN9A) electrophysiology assay, PatchXpress platform
Assay type: cell-based
Conditions: estimated IC50 from single point electrophysiology data, HEK cells stably expressing hSCN9A, held at V1/2 of inactivation, read-out: Nav1.7 EIC50
Task for the reader: assign each of the following molecules its reported IC50.

Measured IC50, `CS(=O)(=O)NC(=O)c1cc(F)c(COc2ccc3cc(C#N)ccc3c2)cc1F` : 820 nM

Measured IC50, `CS(=O)(=O)NC(=O)c1cc(F)c(OCc2ccc(Cl)cc2)cc1F` : > 300 nM

Measured IC50, `CS(=O)(=O)NC(=O)c1cc(F)c(OCc2cccc(OC(F)F)c2)cc1F` : > 300 nM

Measured IC50, `CS(=O)(=O)NC(=O)c1cc(F)c(OCc2cccc(Cl)c2)cc1F` : > 300 nM

---

Target: Nav1.7 (or SCN9A) channel (Homo sapiens, UniProt Q15858)
Construct: expressed in transfected cells
Sequence (Q15858 whole entry): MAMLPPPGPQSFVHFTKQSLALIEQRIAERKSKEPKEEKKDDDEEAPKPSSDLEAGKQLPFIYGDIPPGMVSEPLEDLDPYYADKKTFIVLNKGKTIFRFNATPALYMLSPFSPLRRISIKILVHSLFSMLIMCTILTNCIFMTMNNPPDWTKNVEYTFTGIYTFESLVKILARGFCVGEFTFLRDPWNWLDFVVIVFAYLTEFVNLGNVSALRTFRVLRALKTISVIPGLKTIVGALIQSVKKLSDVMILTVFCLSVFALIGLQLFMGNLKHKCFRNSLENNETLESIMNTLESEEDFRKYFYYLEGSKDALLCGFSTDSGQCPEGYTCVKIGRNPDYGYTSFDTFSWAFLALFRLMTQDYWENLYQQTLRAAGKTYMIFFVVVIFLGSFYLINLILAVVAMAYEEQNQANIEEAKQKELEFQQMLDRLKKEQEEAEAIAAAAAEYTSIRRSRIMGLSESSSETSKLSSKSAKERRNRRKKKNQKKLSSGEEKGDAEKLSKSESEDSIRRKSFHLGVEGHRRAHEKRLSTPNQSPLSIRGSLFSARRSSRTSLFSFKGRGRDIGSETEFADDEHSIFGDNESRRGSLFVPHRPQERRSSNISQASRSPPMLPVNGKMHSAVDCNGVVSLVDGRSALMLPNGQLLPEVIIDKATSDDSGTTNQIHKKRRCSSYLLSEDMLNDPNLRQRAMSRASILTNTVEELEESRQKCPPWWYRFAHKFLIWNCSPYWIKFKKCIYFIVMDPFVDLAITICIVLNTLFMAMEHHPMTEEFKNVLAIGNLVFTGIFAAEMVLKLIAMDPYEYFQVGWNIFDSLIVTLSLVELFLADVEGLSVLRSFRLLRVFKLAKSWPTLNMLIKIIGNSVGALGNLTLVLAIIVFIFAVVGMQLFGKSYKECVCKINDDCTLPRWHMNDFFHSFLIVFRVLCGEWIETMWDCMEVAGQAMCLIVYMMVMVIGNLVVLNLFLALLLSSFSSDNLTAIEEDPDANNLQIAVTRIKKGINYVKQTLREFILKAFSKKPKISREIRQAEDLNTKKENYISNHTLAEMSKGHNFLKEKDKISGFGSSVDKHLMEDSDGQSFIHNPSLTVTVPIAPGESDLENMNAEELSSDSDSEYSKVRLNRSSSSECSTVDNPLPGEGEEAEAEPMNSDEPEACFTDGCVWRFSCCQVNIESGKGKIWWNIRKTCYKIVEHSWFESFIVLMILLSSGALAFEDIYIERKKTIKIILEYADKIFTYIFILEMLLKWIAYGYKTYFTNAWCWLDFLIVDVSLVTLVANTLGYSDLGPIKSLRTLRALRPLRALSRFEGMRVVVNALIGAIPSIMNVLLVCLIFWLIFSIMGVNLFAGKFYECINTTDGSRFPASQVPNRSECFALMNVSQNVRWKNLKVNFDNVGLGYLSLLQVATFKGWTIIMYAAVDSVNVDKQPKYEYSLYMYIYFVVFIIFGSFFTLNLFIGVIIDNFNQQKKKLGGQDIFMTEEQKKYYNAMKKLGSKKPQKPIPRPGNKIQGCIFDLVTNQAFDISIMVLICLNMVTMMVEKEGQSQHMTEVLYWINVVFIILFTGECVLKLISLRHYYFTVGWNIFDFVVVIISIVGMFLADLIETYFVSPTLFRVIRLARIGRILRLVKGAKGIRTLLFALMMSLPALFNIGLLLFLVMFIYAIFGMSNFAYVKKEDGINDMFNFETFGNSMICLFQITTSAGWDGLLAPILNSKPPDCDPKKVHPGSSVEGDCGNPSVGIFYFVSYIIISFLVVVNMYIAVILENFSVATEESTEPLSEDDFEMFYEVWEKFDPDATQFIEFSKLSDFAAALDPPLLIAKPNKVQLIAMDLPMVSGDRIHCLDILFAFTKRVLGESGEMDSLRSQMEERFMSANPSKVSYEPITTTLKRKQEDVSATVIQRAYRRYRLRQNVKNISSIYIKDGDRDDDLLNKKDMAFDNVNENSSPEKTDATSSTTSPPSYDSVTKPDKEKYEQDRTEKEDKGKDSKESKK
Assay: Nav1.7 (hSCN9A) electrophysiology assay, PatchXpress platform
Type: cell-based
Conditions: estimated IC50 from single point electrophysiology data, HEK cells stably expressing hSCN9A, held at V1/2 of inactivation, read-out: Nav1.7 EIC50
reported_metric: IC50

Measured IC50 (Nav1.7 (or SCN9A) channel (Homo sapiens, UniProt Q15858)), entry `COc1cc(Cl)ccc1OCc1ccc(C(=O)NS(C)(=O)=O)cc1` : > 3 µM

Measured IC50 (Nav1.7 (or SCN9A) channel (Homo sapiens, UniProt Q15858)), entry `Cc1ccc(COc2cc(F)c(C(=O)NS(C)(=O)=O)cc2F)cc1` : > 1 µM

Measured IC50 (Nav1.7 (or SCN9A) channel (Homo sapiens, UniProt Q15858)), entry `CS(=O)(=O)NC(=O)c1ccc(OCc2ccc(-n3cccn3)cc2)c(Cl)c1` : > 3 µM

Measured IC50 (Nav1.7 (or SCN9A) channel (Homo sapiens, UniProt Q15858)), entry `CS(=O)(=O)NC(=O)c1cc(F)c(OCC2CCC2)cc1F` : > 1 µM

Measured IC50 (Nav1.7 (or SCN9A) channel (Homo sapiens, UniProt Q15858)), entry `CS(=O)(=O)NC(=O)c1cc(F)c(COc2cccc(N3CCOCC3)c2)cc1F` : > 3 µM

Measured IC50 (Nav1.7 (or SCN9A) channel (Homo sapiens, UniProt Q15858)), entry `CS(=O)(=O)NC(=O)c1cc(F)c(OCc2cc(F)ccc2F)cc1F` : > 1 µM

Measured IC50 (Nav1.7 (or SCN9A) channel (Homo sapiens, UniProt Q15858)), entry `CS(=O)(=O)NC(=O)c1ccc(COc2cccc(C3CCNCC3)c2)cc1` : > 3 µM
